measurement-description: Single-dose PK under fasted conditions in healthy adult subjects
Format: in vivo, human
measurement-conditions: human, plasma, oral, 450 mg single dose
measure-name: AUC(0-t) (µg·h/mL)
Answers are plain numbers, in µg·h/mL.

# lookup: AUC(0-t) of COc1ccc(C(=O)NC2(C(=O)O)Cc3ccccc3C2)cc1OCCc1cccc(C)c1
125

---

measurement-description: Multiple-dose (BID) PK at steady state with meals in healthy adult subjects
Format: in vivo, human
measurement-conditions: human, plasma, oral, 300 mg, 300 mg BID, High-fat reduced calorie meal, steady state, mean (% CV)
measure-name: Cmax (ng/mL)
One number for each entry, in ng/mL.

Given the compound COc1ccc(C(=O)NC2(C(=O)O)Cc3ccccc3C2)cc1OCCc1cccc(C)c1 , what is its reported Cmax?
21700

---

measurement-description: Single-dose PK under fasted conditions in healthy adult subjects
Assay type: in vivo, human
measurement-conditions: human, plasma, oral, 450 mg single dose
measure-name: AUC(0-inf) (µg·h/mL)
Numbers only, in µg·h/mL.

Value lookup for AUC(0-inf); key = COc1ccc(C(=O)NC2(C(=O)O)Cc3ccccc3C2)cc1OCCc1cccc(C)c1
126

---

measurement-description: Single-dose PK under fasted conditions in healthy adult subjects
Assay type: in vivo, human
measurement-conditions: human, plasma, oral, 450 mg single dose
measure-name: Cmax (ng/mL)
Answers are plain numbers, in ng/mL.

What Cmax value was documented for this compound, COc1ccc(C(=O)NC2(C(=O)O)Cc3ccccc3C2)cc1OCCc1cccc(C)c1 ?
15200

---

measurement-description: Food effect on PK at 450 mg single dose in healthy adult subjects
Assay type: in vivo, human
measurement-conditions: human, plasma, oral, Fed (high-fat, high-calorie meal), read-out: AUC0-inf, Geometric LSM
measure-name: AUC(0-inf) (µg·h/mL)
Give bare numbers, in µg·h/mL.

# get_value(readout='AUC(0-inf)', item= COc1ccc(C(=O)NC2(C(=O)O)Cc3ccccc3C2)cc1OCCc1cccc(C)c1 [Compound I] )
248

---

measurement-description: Multiple-dose (BID) PK at steady state with meals in healthy adult subjects
Type: in vivo, human
measurement-conditions: human, plasma, oral, 450 mg, 450 mg BID, Low-fat meal, steady state, mean (% CV)
measure-name: AUC (µg·h/mL)
Answers are plain numbers, in µg·h/mL.

If you can, please state the reported AUC value of COc1ccc(C(=O)NC2(C(=O)O)Cc3ccccc3C2)cc1OCCc1cccc(C)c1 .
163

---

measurement-description: Single-dose PK under fasted conditions in healthy adult subjects
Format: in vivo, human
measurement-conditions: human, plasma, oral, 150 mg single dose
measure-name: Tmax (h)
Numbers only, in h.

Query: Tmax; subject: COc1ccc(C(=O)NC2(C(=O)O)Cc3ccccc3C2)cc1OCCc1cccc(C)c1
3.5

---

measurement-description: Multiple-dose (BID) PK at steady state with meals in healthy adult subjects
Format: in vivo, human
measurement-conditions: human, plasma, oral, 300 mg, 300 mg BID, Low-fat meal, steady state, mean (% CV)
Method: The PK of Compound I and food effect were evaluated in an open-label study in healthy volunteers to inform the dose and dosing condition of the tablet formulations used in the clinical studies. Dose proportionality and food effect were evaluated using a 2-way, 2-period crossover design in two cohorts:150 mg and 300 mg single dose under fasting condition in Cohort 1 and 450 mg single dose under fasting and high-fat, high calorie meal condition in Cohort 2. […]
measure-name: Cmax (ng/mL)
Numbers only, in ng/mL.

Return reported Cmax; argument: COc1ccc(C(=O)NC2(C(=O)O)Cc3ccccc3C2)cc1OCCc1cccc(C)c1
15900
